# Target Entity: BuChE (from equine serum) (Equus caballus, UniProt P81908)
# Construct: butyrylcholinesterase (BuChE, E.C. 3.1.1.8) from equine serum and human serum; purchased Sigma-Aldrich (St. Louis, MO); host or cells: equine serum
# Sequence (P81908 whole entry): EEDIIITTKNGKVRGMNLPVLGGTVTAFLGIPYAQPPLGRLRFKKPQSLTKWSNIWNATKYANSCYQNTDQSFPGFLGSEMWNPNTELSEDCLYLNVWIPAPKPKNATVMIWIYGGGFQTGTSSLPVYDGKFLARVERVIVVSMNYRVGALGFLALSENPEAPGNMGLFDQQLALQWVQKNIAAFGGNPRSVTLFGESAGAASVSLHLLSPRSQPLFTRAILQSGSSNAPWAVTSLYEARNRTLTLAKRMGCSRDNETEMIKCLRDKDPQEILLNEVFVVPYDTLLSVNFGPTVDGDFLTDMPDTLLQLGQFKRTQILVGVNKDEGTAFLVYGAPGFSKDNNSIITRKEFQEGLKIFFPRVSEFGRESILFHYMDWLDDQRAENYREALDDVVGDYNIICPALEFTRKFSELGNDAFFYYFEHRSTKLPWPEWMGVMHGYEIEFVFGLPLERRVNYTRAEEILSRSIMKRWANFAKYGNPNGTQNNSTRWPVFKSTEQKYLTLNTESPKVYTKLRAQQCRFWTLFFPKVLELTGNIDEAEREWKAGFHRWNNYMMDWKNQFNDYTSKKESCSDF
# Assay Text: biochemical
# Format: biochemical
# Condition Label: IC50 eqBuChE, means ± SD of three experiments
Observation Type: IC50 (µM)
Express it in µM; write the number only.

query: Query (compound): COc1ccc(/C=C/C(=O)Nc2cc[n+](Cc3ccc(C)cc3)cc2)cc1OC.[Br-] ; field requested: IC50
result: 3.8

query: # IC50 lookup, item Cc1ccc(C[n+]2ccc(NC(=O)C=Cc3ccccc3)cc2)cc1.[Br-]
result: 25

query: What does the record list as IC50 for COc1ccc(/C=C/C(=O)Nc2cc[n+](Cc3cccc(C)c3)cc2)cc1OC.[Br-] ?
result: 2.7

query: Which IC50 reading was recorded for the compound COc1ccc(/C=C/C(=O)Nc2cc[n+](Cc3cccc(Br)c3)cc2)cc1OC.[Br-] ?
result: 2.5

query: Reported IC50 for O=C(C=Cc1ccccc1)Nc1cc[n+](Cc2ccc(Br)cc2)cc1.[Br-] : what is it?
result: 2.1

query: What does the record list as IC50 for COc1ccc(/C=C/C(=O)Nc2cc[n+](Cc3ccc(Br)cc3)cc2)cc1OC.[Br-] ?
result: 1.9

query: Given the compound O=C(C=Cc1ccccc1)Nc1cc[n+](Cc2cccc(Br)c2)cc1.[Br-] , what is its reported IC50?
result: 2.5

query: Entry under review: O=C(C=Cc1ccccc1)Nc1cc[n+](Cc2ccccc2)cc1.[Br-] . Reported IC50?
result: 6.3

query: Recorded IC50 for O=C(C=Cc1ccccc1)Nc1cc[n+](Cc2cccc(F)c2)cc1.[Br-] , please?
result: 7.4

query: Tell me the measured IC50 of COc1ccc(/C=C/C(=O)Nc2cc[n+](Cc3ccccc3)cc2)cc1OC.[Br-] , please.
result: 4.5

query: What value of IC50 has been recorded for this entry: Cc1cccc(C[n+]2ccc(NC(=O)C=Cc3ccccc3)cc2)c1.[Br-]
result: 8.1

query: Reported IC50 for O=C(C=Cc1ccccc1)Nc1cc[n+](Cc2ccc(F)cc2)cc1.[Br-] : what is it?
result: 10

query: What value of IC50 has been recorded for this entry: COc1ccc(/C=C/C(=O)Nc2cc[n+](Cc3cccc(F)c3)cc2)cc1OC.[Br-]
result: 3.1
